Reference source: patent US9926282B2

# Test Target: UniProtKB Q13464
# Sequence (Q13464 whole entry, species assumed): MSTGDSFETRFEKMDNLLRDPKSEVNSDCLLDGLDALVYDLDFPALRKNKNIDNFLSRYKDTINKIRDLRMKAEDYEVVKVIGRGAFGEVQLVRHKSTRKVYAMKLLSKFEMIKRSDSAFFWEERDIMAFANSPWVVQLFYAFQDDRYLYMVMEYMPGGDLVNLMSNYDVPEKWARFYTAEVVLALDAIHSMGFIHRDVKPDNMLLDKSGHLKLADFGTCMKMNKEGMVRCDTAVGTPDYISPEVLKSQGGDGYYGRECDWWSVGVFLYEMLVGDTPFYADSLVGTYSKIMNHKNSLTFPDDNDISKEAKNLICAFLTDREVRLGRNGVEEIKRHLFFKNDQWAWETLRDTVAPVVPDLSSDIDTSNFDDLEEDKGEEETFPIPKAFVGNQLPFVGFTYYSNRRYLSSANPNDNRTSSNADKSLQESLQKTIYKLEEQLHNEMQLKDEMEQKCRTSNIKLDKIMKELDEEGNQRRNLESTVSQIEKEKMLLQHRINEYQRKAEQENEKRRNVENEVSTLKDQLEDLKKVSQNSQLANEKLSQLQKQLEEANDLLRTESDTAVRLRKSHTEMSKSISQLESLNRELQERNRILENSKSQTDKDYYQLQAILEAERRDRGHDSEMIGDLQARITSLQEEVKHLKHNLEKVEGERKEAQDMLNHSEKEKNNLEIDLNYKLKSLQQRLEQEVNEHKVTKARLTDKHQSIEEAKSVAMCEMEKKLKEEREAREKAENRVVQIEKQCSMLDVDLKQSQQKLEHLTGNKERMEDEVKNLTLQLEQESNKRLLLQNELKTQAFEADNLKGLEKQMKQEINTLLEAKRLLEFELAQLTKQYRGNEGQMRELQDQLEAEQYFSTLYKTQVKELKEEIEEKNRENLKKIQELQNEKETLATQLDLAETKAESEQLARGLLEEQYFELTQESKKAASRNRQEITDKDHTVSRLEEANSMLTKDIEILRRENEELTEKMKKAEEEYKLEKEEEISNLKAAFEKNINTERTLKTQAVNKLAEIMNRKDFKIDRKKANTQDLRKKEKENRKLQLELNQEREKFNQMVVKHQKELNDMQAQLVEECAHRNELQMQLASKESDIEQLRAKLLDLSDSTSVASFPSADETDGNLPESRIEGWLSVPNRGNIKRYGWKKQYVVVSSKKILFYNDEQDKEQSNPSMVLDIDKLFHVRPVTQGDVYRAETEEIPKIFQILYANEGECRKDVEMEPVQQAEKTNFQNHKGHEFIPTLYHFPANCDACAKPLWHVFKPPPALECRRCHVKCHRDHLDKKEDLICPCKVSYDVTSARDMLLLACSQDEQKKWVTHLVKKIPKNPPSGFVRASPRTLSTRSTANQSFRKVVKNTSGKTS
# Experiment Summary: ROCK assay (LABCHIP peptide phosphorylation), ROCK1
# Format: biochemical
# Measurement Conditions: 5 μM ATP, 1.5 μM peptide substrate; read-out: ROCK1 IC50
Where a name gives a salt, the structure may show the parent alone.
Consider the following molecules; for each one, report its IC50.

// query Fill in the blank: the reported IC50 of CC(C)OC(=O)N1CCC(Cn2nc(C(=O)Nc3ccc(-c4n[nH]c(=O)c5ccccc45)cc3)c3ccccc32)CC1 is ____.
// result 0.1 to 100 nM

// query Fill in the blank: the reported IC50 of O=C(Nc1ccc(-c2n[nH]c(=O)c3ccccc23)cc1)c1c[nH]c(-c2ccccc2)n1 is ____.
// result 0.1 to 100 nM

// query Fill in the blank: the reported IC50 of CC(C)(O)Cn1nc(C(=O)Nc2ccc(-c3n[nH]c(=O)c4ccccc34)cc2F)c2ccccc21 is ____.
// result 101 to 1000 nM

// query Fill in the blank: the reported IC50 of O=C(Nc1ccc(-c2n[nH]c(=O)c3ccccc23)cc1)c1cn[nH]c1 [Example 391, TFA] is ____.
// result 101 to 1000 nM

// query Fill in the blank: the reported IC50 of Cc1cc(NC(=O)c2nn(CC3CCN(C(=O)OCc4ccccc4)CC3)c3ccccc23)ccc1-c1n[nH]c(=O)c2ccccc12 is ____.
// result 101 to 1000 nM

// query Fill in the blank: the reported IC50 of O=C(Cc1ccc(-c2n[nH]c(=O)c3ccccc23)cc1)N1CCc2ccc(C(F)(F)F)cc21 is ____.
// result 101 to 1000 nM

// query Fill in the blank: the reported IC50 of O=C(Nc1ccc(-c2n[nH]c(=O)c3ccccc23)cc1)c1cnn(Cc2ccccc2)c1 is ____.
// result 0.1 to 100 nM
